- Measurement notes: CCK8 cell viability assay in Huh7 cells
- Assay type: cell-based, human
- Experimental conditions: human
Metric: CC50 at 24 h (µM)
Could you give me the number in µM? Just the number is fine.

# query: CC50 at 24 h of entry `Cn1cc(C2=C(c3cn(C4CCN(Cc5ccccn5)CC4)c4ccccc34)C(=O)NC2=O)c2ccccc21`
86.4

---

- Test system: BHK-21 cells
- Measurement notes: CCK8 cell viability assay in BHK-21 cells
- Type: cell-based, hamster
- Experimental conditions: hamster, 24 h
Metric: CC50 (µM)
Could you give me the number in µM? Just the number is fine.

Report CC50 for Cn1cc(C2=C(c3cn(C4CCN(Cc5ccccn5)CC4)c4ccccc34)C(=O)NC2=O)c2ccccc21 [enzastaurin] tested on BHK-21 cells.
160

---

- Measurement notes: CCK8 cell viability assay in BHK-21 cells
- Format: cell-based, hamster
- Experimental conditions: hamster, BHK-21 cells; 24 h; read-out: CC50 (CCK8 cell viability)
- Protocol: Cell viabilities were analyzed using cell counting kit 8 (CCK8) (catalog no. HY-K0301; MCE) according to the manufacturer’s instructions. Ten microliters of the CCK8 reagent was added to each well of a 96-well plate. After incubation at 37°C for 1 h, optical density (OD) values were measured at 450 nm using a BioTek instrument. The CC50 was calculated by nonlinear regression analysis.
Metric: CC50 at 24 h (µM)
Could you give me the number in µM? Just the number is fine.

# query: CC50 at 24 h of entry `CN1CCN(c2nc(C3=C(c4c[nH]c5ccccc45)C(=O)NC3=O)c3ccccc3n2)CC1`
82.2

---

- System: Huh7 cells
- Measurement notes: CCK8 cell viability assay in Huh7 cells
- Format: cell-based, human
- Experimental conditions: human Huh7 cells; 24 h
The entries below come with measured CC50 values attached.
Could you give me the number in µM? Just the number is fine.

* CN(C)CCCn1cc(C2=C(c3c[nH]c4ccccc34)C(=O)NC2=O)c2ccccc21 [bisindolylmaleimide I] | 30

Read the next record carefully.
# query: CC50 of entry `COc1ccc2c(c1)c(C1=C(c3c[nH]c4ccccc34)C(=O)NC1=O)cn2CCCN(C)C`
24.9

---

- Test system: SARS-CoV-2 replicon
- Measurement notes: microbe, parasite or virus in culture
- Type: cell-based
The entries below come with measured relative luciferase activity lower than that in DMSO-treated cells values attached.

# query: relative luciferase activity lower than that in DMSO-treated cells of entry `Cn1cc(C2=C(c3cn(C4CCN(Cc5ccccn5)CC4)c4ccccc34)C(=O)NC2=O)c2ccccc21`
~92%

Same lookup for CN(C)CCCn1cc(C2=C(c3c[nH]c4ccccc34)C(=O)NC2=O)c2ccccc21 [bisindolylmaleimide I] , please.
~96%

Same lookup for `CN1CCN(c2nc(C3=C(c4c[nH]c5ccccc45)C(=O)NC3=O)c3ccccc3n2)CC1` , please.
~89%

---

- Measurement notes: CCK8 cell viability assay in A549-ACE2 cells
- Type: cell-based, human
- Experimental conditions: human
Metric: CC50
Remember to follow the number with its unit.

# query: CC50 of entry `Cn1cc(C2=C(c3cn(C4CCN(Cc5ccccn5)CC4)c4ccccc34)C(=O)NC2=O)c2ccccc21`
80 µM

---

- Test system: SARS-CoV-2 pseudovirus
- Type: cell-based
- Experimental conditions: pretreated 1 h, % of DMSO
Metric: luciferase activity of pseudovirus relative to DMSO-treated cells (entry)

Answered cases to consult:
- CN1CCN(c2nc(C3=C(c4c[nH]c5ccccc45)C(=O)NC3=O)c3ccccc3n2)CC1: ~55%
- Cn1cc(C2=C(c3cn(C4CCN(Cc5ccccn5)CC4)c4ccccc34)C(=O)NC2=O)c2ccccc21: ~42%

Read the next record carefully.
Report luciferase activity of pseudovirus relative to DMSO-treated cells (entry) for CN(C)CCCn1cc(C2=C(c3c[nH]c4ccccc34)C(=O)NC2=O)c2ccccc21 [bisindolylmaleimide I] tested on SARS-CoV-2 pseudovirus.
~24%
